Value source: the supplement of paper PMC8728848

Target: Gal6S(b1-4)GlcNAc6S
Experiment: glycan array binding signal (z-score within array); higher = stronger binding
Settings: glycan notation: IUPAC condensed, linker removed
Shown is part of a subset that was picked to be rich in the strongest signals.
experimental-endpoint: glycan array binding signal (z-score)

Consider the worked cases shown below.
Epa3to1 (Candida glabrata) (protein) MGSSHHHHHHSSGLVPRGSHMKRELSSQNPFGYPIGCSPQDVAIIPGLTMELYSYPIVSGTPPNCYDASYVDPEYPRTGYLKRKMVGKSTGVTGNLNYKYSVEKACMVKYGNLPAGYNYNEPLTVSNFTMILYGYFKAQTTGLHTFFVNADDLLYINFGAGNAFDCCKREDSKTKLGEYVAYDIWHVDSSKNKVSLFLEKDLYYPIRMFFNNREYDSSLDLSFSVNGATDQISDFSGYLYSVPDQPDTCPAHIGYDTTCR    9.56
Epa1to9 (Candida glabrata) (protein) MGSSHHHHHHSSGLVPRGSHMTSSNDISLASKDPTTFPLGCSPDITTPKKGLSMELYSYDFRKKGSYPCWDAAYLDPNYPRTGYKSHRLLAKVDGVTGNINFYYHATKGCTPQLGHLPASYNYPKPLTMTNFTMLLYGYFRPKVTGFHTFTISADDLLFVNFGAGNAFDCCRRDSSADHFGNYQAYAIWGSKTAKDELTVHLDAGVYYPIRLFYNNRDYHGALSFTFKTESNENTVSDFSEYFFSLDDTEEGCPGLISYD    10.6
SSA (Sclerotinia sclerotiorum), A7XUK7 (protein) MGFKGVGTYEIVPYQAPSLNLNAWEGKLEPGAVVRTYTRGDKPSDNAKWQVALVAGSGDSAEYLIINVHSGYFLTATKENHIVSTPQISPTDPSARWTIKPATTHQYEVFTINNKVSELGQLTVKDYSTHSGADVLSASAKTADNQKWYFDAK    0.403
Epa2 (Candida glabrata) (protein) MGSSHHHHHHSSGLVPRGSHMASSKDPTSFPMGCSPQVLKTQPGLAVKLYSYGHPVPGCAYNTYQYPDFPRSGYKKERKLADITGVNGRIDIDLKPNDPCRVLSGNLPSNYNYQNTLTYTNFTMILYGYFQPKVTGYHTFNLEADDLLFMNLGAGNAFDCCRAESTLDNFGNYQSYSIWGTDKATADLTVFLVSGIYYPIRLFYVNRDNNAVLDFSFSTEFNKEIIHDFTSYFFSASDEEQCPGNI    2.81
Epa3to2 (Candida glabrata) (protein) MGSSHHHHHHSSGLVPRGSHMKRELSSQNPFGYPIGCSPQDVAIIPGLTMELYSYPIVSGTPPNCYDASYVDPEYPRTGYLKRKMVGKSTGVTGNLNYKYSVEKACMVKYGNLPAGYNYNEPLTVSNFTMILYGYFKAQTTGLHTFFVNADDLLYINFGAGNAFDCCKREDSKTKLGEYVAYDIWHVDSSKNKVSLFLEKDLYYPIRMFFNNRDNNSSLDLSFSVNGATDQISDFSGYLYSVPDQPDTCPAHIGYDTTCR    2.45
Epa21 (Candida glabrata) (protein) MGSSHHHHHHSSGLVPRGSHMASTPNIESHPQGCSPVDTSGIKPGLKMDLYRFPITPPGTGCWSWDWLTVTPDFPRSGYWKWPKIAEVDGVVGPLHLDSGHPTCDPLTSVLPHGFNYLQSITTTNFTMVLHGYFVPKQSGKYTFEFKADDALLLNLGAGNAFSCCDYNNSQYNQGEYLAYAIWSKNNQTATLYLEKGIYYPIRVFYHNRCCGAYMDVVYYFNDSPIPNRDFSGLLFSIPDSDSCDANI    3.19

Req: So what does the record say about glycan array binding signal (z-score) for Flo1 (Saccharomyces cerevisiae), P32768 (protein) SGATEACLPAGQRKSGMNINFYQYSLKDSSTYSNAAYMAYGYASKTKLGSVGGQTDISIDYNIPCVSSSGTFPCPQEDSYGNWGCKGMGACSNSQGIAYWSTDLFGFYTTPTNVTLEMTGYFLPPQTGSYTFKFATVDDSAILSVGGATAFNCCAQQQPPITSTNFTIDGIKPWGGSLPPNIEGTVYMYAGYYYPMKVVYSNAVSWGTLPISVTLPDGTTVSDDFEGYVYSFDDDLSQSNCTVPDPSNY ?
Resp: -0.216

Req: Subsequent entry: CBM32-4 (Clostridium perfringens), P26831 (protein) MGSSHHHHHHSSGLVPRGSHMASVYEPSLVDAYVGDDGAKKAVDGDLKTRVKFLGAPSTGDTIVYDLGQEILVDNLKYVVLDTEVDHVRDGKIQLSLDGETWTDAINIGDGVENGVDDMFSTPLKNGYKHGNQSGGIVPIDSAYVEGDNLNQKARYVRILFTAPYRHRWTVINELMINNGEYIPTVNDPT
Resp: 4.9
